- Protocol Summary: Pharmacokinetic
- Assay type: in vivo, mouse (C57BL/6)
- Condition Details: C57BL/6, mouse, in vivo, iv, 500 nmol
Measurement Name: AUC

Entry COCCOc1nc(N)c2nc(O)n(Cc3ccccc3)c2n1 [Compound 1V136, reference compound] : reported AUC = ?
1.62 µM·h

---

- Protocol Summary: Pharmacokinetic
- Format: in vivo, mouse (C57BL/6)
- Condition Details: C57BL/6, mouse, serum, iv, 500 nmol
Measurement Name: AUC (µM·h)
Value expressed in µM·h; do not type the unit.

Given Smiles: COCCOc1nc(N)c2nc(O)n(Cc3ccc(C(=O)NCCOCCOCCOCCOCCOCCOCCn4cc(CCC(=O)O)nn4)cc3)c2n1
AUC / µM·h: 5.93

Continue with the next compound.
Entry COCCOc1nc(N)c2nc(O)n(Cc3ccc(C(=O)NCCOCCOCCOCCOCCOCCOCCOCCOCCOCCOCCOCCOCCOCCOCCOCCOCCOCCOCCOCCN)cc3)c2n1 : reported AUC = ?
41.4

---

# key: entry, value: EC50
- Test system: NFκB-bla Raw 264.7 cells
- Protocol Summary: In vitro NFkB activation using NFκB-bla Raw 264.7 cells
- Assay type: cell-based, murine
- Condition Details: Mus musculus, RAW264.7, 16 h, read-out: EC50 NFkB-RAW
Value expressed in µM; do not type the unit.

Below, each entry is followed by its recorded EC50 result.
Molecule: COCCOc1nc(N)c2nc(O)n(Cc3ccc(C(=O)NCCOCCOCCOCCOCCOCCOCCOCCOCCOCCOCCn4cc(CCC(=O)O)nn4)cc3)c2n1 [Compound 2b]
Measured On: NFκB-bla Raw 264.7 cells
Measurement Name: EC50
Value Observed: 2.67
//
Molecule: COCCOc1nc(N)c2nc(O)n(Cc3ccccc3)c2n1 [Compound 1V136, reference compound]
Measured On: NFκB-bla Raw 264.7 cells
Measurement Name: EC50
Value Observed: 0.08

Entry COCCOc1nc(N)c2nc(O)n(Cc3ccc(C(=O)NCCOCCOCCOCCOCCOCCOCCN=[N+]=[N-])cc3)c2n1 [Compound 1a] : reported EC50 = ?
4.13

Entry COCCOc1nc(N)c2nc(O)n(Cc3ccc(C(=O)NCCOCCOCCOCCOCCOCCOCCOCCOCCOCCOCCOCCOCCOCCOCCOCCOCCOCCOCCOCCN)cc3)c2n1 [Compound 3] : reported EC50 = ?
0.9

---

# key: entry, value: EC50
- System: NFκB-bla Raw 264.7 cells
- Protocol Summary: In vitro NFkB activation using NFκB-bla Raw 264.7 cells
- Assay type: cell-based, murine
- Condition Details: Mus musculus, RAW264.7, 16 h, read-out: EC50 NFkB-RAW
Value expressed in µM; do not type the unit.

Below, each entry is followed by its recorded EC50 result.
Given Smiles: COCCOc1nc(N)c2nc(O)n(Cc3ccc(C(=O)NCCOCCOCCOCCOCCOCCOCCN)cc3)c2n1
Measured On: NFκB-bla Raw 264.7 cells
Result Units: µM
EC50: 1.19

Given Smiles: COCCOc1nc(N)c2nc(O)n(Cc3ccc(C(=O)NCCOCCOCCOCCOCCOCCOCCOCCOCCOCCOCCN=[N+]=[N-])cc3)c2n1
Measured On: NFκB-bla Raw 264.7 cells
Result Units: µM
EC50: 5.91

Given Smiles: COCCOc1nc(N)c2nc(O)n(Cc3ccc(C(=O)NCCOCCOCCOCCOCCOCCOCCn4cc(CCC(=O)O)nn4)cc3)c2n1
Measured On: NFκB-bla Raw 264.7 cells
Result Units: µM
EC50: 4.99

Continue with the next compound.
Entry COCCOc1nc(N)c2nc(O)n(Cc3ccc(C(=O)NCCOCCOCCOCCOCCOCCOCCOCCOCCOCCOCCN)cc3)c2n1 : reported EC50 = ?
1.16
